- Test system: RIOK1;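 also: kd values determined as follow-up on hits from a single-replicate KINOMEscan panel screen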
pKd: −log10 of the molar value.
measurement-label: pKd

INSERT INTO assay_data (smi, subject_of_test, result) VALUES
  ('Cc1ccc(Oc2ccc(Nc3ncnc4cc[nH]c34)cc2C)cn1', 'RIOK1', '< 5.00');

###

- Test system: YANK3
- Construct: gene STK32C
- condition-details: concentration: 1 μM, replicates: in singlicate; n = 1
Consider the following molecules and their measured %Inh readings.
measurement-label: %Inh (%)

INSERT INTO measurements (molecule, measurement_label, quantity_unit, quantitative_readout) VALUES
  ('Nc1nc(N)c2nc(-c3ccccc3)[nH]c2n1', '%Inh', '%', 13),
  ('Nc1ncnc2c1ncn2-c1cccc2ccccc12', '%Inh', '%', 4),
  ('Cc1ccccc1COc1cc(-n2cnc3cc(Cl)ccc32)sc1C(N)=O', '%Inh', '%', 35),
  ('CCS(=O)c1ccc(-c2coc3ccc(-c4nnc(C)o4)cc23)cc1 (centres unmarked)', '%Inh', '%', 0),
  ('OCCCNc1nccc(-c2c(-c3cccc(C(F)(F)F)c3)nn3cc(C(F)(F)F)ccc23)n1', '%Inh', '%', 0),
  ('O=c1cc(N2CCOCC2)nc2n(Cc3ccc(F)c(Cl)c3)ccn12', '%Inh', '%', 0),
  ('Cc1c(Cn2c(C)nn3c(=O)cc(N4CCO[C@H](C)C4)nc23)cccc1C(F)(F)F', '%Inh', '%', 8),
  ('Cn1c(=O)c(F)c(Nc2ccc(I)cc2F)c2c(=O)n(OC[C@H](O)CO)cnc21', '%Inh', '%', 0),
  ('CN(C)c1cc(-c2ccc3c(N)n[nH]c3c2)nc(N)n1', '%Inh', '%', 0),
  ('Cc1ccc(Oc2ccc(Nc3ncnc4cc[nH]c34)cc2C)cn1', '%Inh', '%', 11),
  ('CN1C(=O)C(Nc2cc(Cl)c(O)c(Cl)c2)=C(c2ccc(Cl)cc2)C1=O', '%Inh', '%', 0);

###

- Test system: SYK
- condition-details: concentration: 1 μM, replicates: in singlicate; n = 1
Parameter %Inh: see the listing below.
measurement-label: %Inh (%)

INSERT INTO assay_data (molecule, subject_of_test, quantitative_readout) VALUES
  ('Cc1cccc(-c2nc(Nc3ccc4c(cnn4C)c3)c3ccccc3n2)n1 [GW876731]', 'SYK', 24),
  ('Nc1nc(-c2ccccc2F)c(-c2ccnc3ccccc23)s1 [GW560459]', 'SYK', 32),
  ('COC(=O)c1c(-c2ccccc2)c2cc(C)ccc2c(=O)n1Cc1ccccc1', 'SYK', 0),
  ('Cc1ccc(-c2ccc3c(ccc4sc5c(c43)NC[C@@H](C)N=C5N(C)C)n2)cn1', 'SYK', 0),
  ('CN1C(=O)C(Nc2ccccc2)=C(c2ccccc2)C1=O [SB-300079]', 'SYK', 3),
  ('COc1cc(Nc2nccc(N3CCC(NC(=O)C(C)c4ccc(Cl)cc4)C3)n2)cc(OC)c1OC (stereo not drawn) [GSK1379757]', 'SYK', 20),
  ('CC(C)(C)c1ccc(C(=O)Nc2cn3cc(-c4ccccc4)ccc3n2)cc1', 'SYK', 0),
  ('CN(C)c1cc(-c2ccc3c(N)n[nH]c3c2)nc(N)n1 [GSK2219329]', 'SYK', 17),
  ('Cc1c(Cn2c(C)nn3c(=O)cc(N4CCO[C@H](C)C4)nc23)cccc1C(F)(F)F [GSK2373690]', 'SYK', 25);

###

The entries below are paired with their reported %Inh.
- Test system: MARK1
- condition-details: concentration: 1 μM, replicates: in singlicate; n = 1
measurement-label: %Inh (%)

INSERT INTO measurements (smi, quantity_unit, quantitative_readout) VALUES
  ('COc1ccc(-c2cc3c(C)nc(N)nc3n([C@H]3CC[C@H](O)CC3)c2=O)cn1', '%', 0),
  ('Nc1nc(N)c2nc(-c3ccccc3)[nH]c2n1', '%', 1),
  ('CCCC(=O)Nc1n[nH]c2ncc(-c3cccc4ccccc34)cc12', '%', 2),
  ('COc1ccc(-n2cnc3c(N)ncnc32)cc1', '%', 15),
  ('COc1cc(OC)cc(-c2cc3cnc(N)nc3nc2NC(=O)NC(C)(C)C)c1', '%', 0);

###

- Tested on: BRAF
- condition-details: concentration: 1 μM, replicates: in singlicate; n = 1
Below: a set of entries, each annotated with reported %Inh.
measurement-label: %Inh (%)

INSERT INTO results (compound, subject_of_test, quantitative_readout) VALUES
  ('COc1ccc(Nc2nccc(N3CCC(NS(=O)(=O)c4ccc(NC(C)=O)cc4)C3)n2)cc1 (stereo not drawn)', 'BRAF', 16),
  ('O=C(Nc1n[nH]c2cc(-c3ccccc3F)ccc12)C1CC1', 'BRAF', 0),
  ('COc1ccc(-c2cc3c(C)nc(N)nc3n([C@H]3CC[C@H](OCCO)CC3)c2=O)cn1', 'BRAF', 0),
  ('O=C(NCc1cccs1)c1cc(C(=O)c2c(Cl)cccc2Cl)c[nH]1', 'BRAF', 0),
  ('CN1C(=O)C(Nc2cc(Cl)c(O)c(Cl)c2)=C(c2ccc(Cl)cc2)C1=O', 'BRAF', 0),
  ('COc1cccc(C2=C(Nc3cccc(C(=O)O)c3)C(=O)NC2=O)c1', 'BRAF', 0),
  ('CCC(=O)c1c(-c2ccccc2)c2cc(Cl)ccc2c(=O)n1Cc1ccc(C(=O)O)cc1', 'BRAF', 48),
  ('Cc1cccc(-c2nc(Nc3ccc4c(cnn4C)c3)c3ccccc3n2)n1', 'BRAF', 0),
  ('Cc1nc(N(C)[C@H]2CN(C(=O)CC#N)CC[C@H]2C)c2cc[nH]c2n1', 'BRAF', 0),
  ('COc1cc2nccc(Nc3ccc(OCc4ccc(NC(C)=O)cc4)cc3)c2cc1OC.Cl', 'BRAF', 6),
  ('Nc1ncnc2c1ncn2-c1ccc(Cl)cc1', 'BRAF', 0),
  ('CCc1nc(-c2cccc(C)c2)c(-c2ccncc2)s1', 'BRAF', 50),
  ('COc1cc2ncn(-c3cc(OCc4ccncc4Br)c(C(N)=O)s3)c2cc1OC', 'BRAF', 2),
  ('Nc1ncnc2c1ncn2-c1cccc2ccccc12', 'BRAF', 0),
  ('Nc1nc(N)c2nc(-c3ccccc3)[nH]c2n1', 'BRAF', 1);

###

- Test system: FGFR1
- condition-details: concentration: 1 μM, replicates: in singlicate; n = 1
Please use condition met whenever %Inh is not below 5%, and condition not met whenever it is.

INSERT INTO measurements (smi, subject_of_test, class_name) VALUES
  ('COc1cccc(-n2cnc3c(N)ncnc32)c1', 'FGFR1', 'condition met'),
  ('CCC(=O)c1c(-c2ccccc2)c2cc(Cl)ccc2c(=O)n1Cc1cc(C(=O)NC2CC2)n(C)n1', 'FGFR1', 'condition not met'),
  ('CCC(=O)c1c(-c2ccccc2)c2cc(Cl)ccc2c(=O)n1Cc1cc(S(C)(=O)=O)n(CC(F)F)n1', 'FGFR1', 'condition not met'),
  ('Cn1c(=O)c(F)c(Nc2ccc(I)cc2F)c2c(=O)n(OC[C@H](O)CO)cnc21', 'FGFR1', 'condition met'),
  ('COc1cc2nccc(Nc3ccc(OCc4ccc(NC(C)=O)cc4)cc3)c2cc1OC.Cl', 'FGFR1', 'condition not met'),
  ('CCS(=O)(=O)c1ccc(OC)c(Nc2ncc(-c3ccc(F)cc3)o2)c1.Cl', 'FGFR1', 'condition not met'),
  ('Cc1cc(Nc2nc(-c3cccc(C)n3)nc3ccccc23)ccn1', 'FGFR1', 'condition met'),
  ('Cc1nn2c(=O)cc(N3CCOCC3)nc2n1Cc1cccc(Cl)c1Cl', 'FGFR1', 'condition not met');

###

- System: CSK
- condition-details: concentration: 1 μM, replicates: in singlicate; n = 1
measurement-label: %Inh (%)

INSERT INTO results (molecule, measurement_label, quantitative_readout) VALUES
  ('O=C1NC(=O)C(c2ccccc2)=C1Nc1cccc(O)c1 [SB-390534]', '%Inh', 0),
  ('COc1ccc(-n2cnc3c(N)ncnc32)cc1 [SKF-97236]', '%Inh', 4),
  ('CCC(=O)c1c(-c2ccccc2)c2cc(Cl)ccc2c(=O)n1Cc1ccc(C(=O)O)cc1', '%Inh', 0),
  ('Cl.c1ccc(Cn2cnc3cc(Nc4ncnc5ccccc45)ccc32)cc1 [GW272142]', '%Inh', 64),
  ('CCC(=O)c1c(-c2ccccc2)c2cc(Cl)ccc2c(=O)n1Cc1cc(S(C)(=O)=O)n(CCC(C)(C)O)n1', '%Inh', 0),
  ('COc1cc2ncn(-c3cc(OCc4ccncc4)c(C(N)=O)s3)c2cc1OC [GSK336313]', '%Inh', 0),
  ('Nc1nc(N)c2nc(-c3ccccc3)[nH]c2n1 [SKF-12778]', '%Inh', 0),
  ('C[C@@H]1CC[C@H](C(=O)NC2CCCCC2)CN1c1cc(-c2ccc3c(N)n[nH]c3c2)nc(N)n1 [GSK2291363]', '%Inh', 0),
  ('CCCC(=O)Nc1n[nH]c2ncc(-c3cccc4ccccc34)cc12 [SB-642057]', '%Inh', 0),
  ('COc1ccc(-c2cc3c(C)nc(N)nc3n([C@H]3CC[C@H](OCCO)CC3)c2=O)cn1', '%Inh', 13),
  ('COc1cccc(C2=C(N(C)c3ccccc3)C(=O)NC2=O)c1 [SB-334865]', '%Inh', 0),
  ('Nc1ncnc2c1ncn2-c1ccc(Cl)cc1 [AH2635]', '%Inh', 0),
  ('Cc1ccc(-c2ccc3c(ccc4sc5c(c43)NC[C@@H](C)N=C5N(C)C)n2)cn1', '%Inh', 0),
  ('COc1cc(OC)cc(-c2cc3cnc(N)nc3nc2NC(=O)NC(C)(C)C)c1', '%Inh', 0),
  ('COc1ccc(CNC(=O)NC2CCN(c3ccnc(Nc4ccc(F)cc4)n3)C2)cc1 (stereo not drawn) [GSK1379706]', '%Inh', 5);
